From: ChEMBL document CHEMBL1147937

Could you please report measured IC50 for the items listed next?
Molecular target: Kinesin-like protein KIF11 (Homo sapiens, UniProt P52732)
Sequence (P52732 whole entry): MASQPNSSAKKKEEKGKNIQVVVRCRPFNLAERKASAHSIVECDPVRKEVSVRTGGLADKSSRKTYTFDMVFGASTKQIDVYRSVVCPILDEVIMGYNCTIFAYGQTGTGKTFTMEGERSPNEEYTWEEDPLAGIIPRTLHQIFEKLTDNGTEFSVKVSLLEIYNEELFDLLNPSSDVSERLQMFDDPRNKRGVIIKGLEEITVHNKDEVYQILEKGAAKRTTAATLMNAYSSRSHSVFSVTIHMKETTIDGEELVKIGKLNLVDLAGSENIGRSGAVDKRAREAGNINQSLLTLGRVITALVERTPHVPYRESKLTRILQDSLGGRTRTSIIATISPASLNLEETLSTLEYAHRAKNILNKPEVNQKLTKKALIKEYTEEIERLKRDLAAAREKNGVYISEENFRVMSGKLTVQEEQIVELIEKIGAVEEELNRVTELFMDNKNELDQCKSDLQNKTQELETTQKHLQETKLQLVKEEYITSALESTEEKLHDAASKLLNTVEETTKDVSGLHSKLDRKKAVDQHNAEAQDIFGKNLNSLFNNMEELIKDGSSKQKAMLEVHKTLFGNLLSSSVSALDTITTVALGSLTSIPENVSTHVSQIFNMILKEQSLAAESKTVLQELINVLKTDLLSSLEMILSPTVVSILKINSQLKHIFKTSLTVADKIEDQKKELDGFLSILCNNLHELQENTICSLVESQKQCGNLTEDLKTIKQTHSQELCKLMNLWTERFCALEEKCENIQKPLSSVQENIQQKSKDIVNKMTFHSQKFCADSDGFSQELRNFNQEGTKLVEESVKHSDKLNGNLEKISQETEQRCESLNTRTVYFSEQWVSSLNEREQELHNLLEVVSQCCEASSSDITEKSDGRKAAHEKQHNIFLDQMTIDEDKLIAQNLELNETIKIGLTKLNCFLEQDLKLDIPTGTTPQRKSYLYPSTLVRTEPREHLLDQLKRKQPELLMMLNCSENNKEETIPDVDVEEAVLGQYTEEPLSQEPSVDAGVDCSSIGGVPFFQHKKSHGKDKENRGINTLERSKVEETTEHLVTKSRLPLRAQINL
Experiment: Inhibition of KSP
Just the number in µM, nothing appended.

The value of IC50 recorded for CN(C)C(=O)N1CC(c2cc(F)ccc2F)=C[C@@]1(CCCNCCF)c1ccccc1 when tested on Kinesin-like protein KIF11 (Homo sapiens, UniProt P52732) reads 0.0102

With Kinesin-like protein KIF11 (Homo sapiens, UniProt P52732) as the test system, CCNCCC[C@@]1(c2ccccc2)C=C(c2cc(F)ccc2F)CN1C(=O)N(C)C showed IC50 of 0.0102

Entry CN(C)C(=O)N1CC(c2cc(F)ccc2F)=C[C@@]1(CCCNCC(F)F)c1ccccc1 , tested on Kinesin-like protein KIF11 (Homo sapiens, UniProt P52732), has a reported IC50 of 0.0121
